test: Pharmacokinetic profiles of patients on the extended dosing regimen (plasma, LCMS/MS, day 15); type: in vivo; details: human, plasma, po, 25 mg, 25 mg QD oral, day 15, N=4; harmonic mean and pseudo standard deviation; read-out: t1/2 (converted)

{"Smiles Entry": "COc1ccc(S(=O)(=O)Nc2cccnc2Nc2ccc(O)cc2)cc1", "Unit Label": "h", "half-life": 6.3}

====

test: Pharmacokinetic profiles of patients on the extended dosing regimen (plasma, LCMS/MS, day 15); type: in vivo; conditions: human, plasma, po, 50 mg, 50 mg BID oral, day 15, N=2; harmonic mean and pseudo standard deviation; read-out: t1/2 (converted)

{"Smiles Entry": "COc1ccc(S(=O)(=O)Nc2cccnc2Nc2ccc(O)cc2)cc1", "half-life (h)": 4}
